# Test system: las quorum sensing system (lasB-gfp(ASV) expression)
# assayRemarks: AHL and furanone bioassay, PlasB-gfp(ASV) Plac-lasR reporter in planktonic PAO-JP2
# Format: cell-based, Pseudomonas aeruginosa
# conditionLabel: pMHLAS based (plasmid) reporter hosted by PAO-JP2; data not shown; read-out: OdDHL concentration required for half-maximal activation of the lasB-gfp(ASV) fusion
reportedEndpoint: EC50 (nM)

| smilesNotation | studySystem | numericResult |
| --- | --- | --- |
| CCCCCCCCCC(=O)CC(=O)N[C@H]1CCOC1=O | las quorum sensing system (lasB-gfp(ASV) expression) | 8 |
